Target: P2Y purinoceptor 1 (Homo sapiens) (UniProt P47900)
Sequence (P47900 whole entry, looked up): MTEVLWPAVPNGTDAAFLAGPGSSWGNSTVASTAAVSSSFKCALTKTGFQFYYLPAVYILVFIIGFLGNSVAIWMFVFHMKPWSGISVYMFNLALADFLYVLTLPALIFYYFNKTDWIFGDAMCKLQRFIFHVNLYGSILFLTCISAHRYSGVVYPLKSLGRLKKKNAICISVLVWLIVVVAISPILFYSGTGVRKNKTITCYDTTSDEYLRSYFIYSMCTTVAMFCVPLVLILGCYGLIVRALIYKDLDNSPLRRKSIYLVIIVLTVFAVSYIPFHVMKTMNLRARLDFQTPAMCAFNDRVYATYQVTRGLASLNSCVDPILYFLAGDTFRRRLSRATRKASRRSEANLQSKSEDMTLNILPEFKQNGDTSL
Assay: Concenthumanion required for calcium mobilization at human purinergic 2Y1 receptor expressed in HEK 293 cells
Threshold-based label: EC50 under 20 nM gives True, EC50 not under 20 nM gives False.

The examples below pair each entry with its known result.
Compound	Subject Of Test	Group
Nc1ncnc2c1ncn2C1O[C@H](CO[P@](O)(=S)OP(=O)(O)OP(=O)(O)O)[C@@H](O)[C@H]1O (stereo partly specified)	P2Y purinoceptor 1 (Homo sapiens) (UniProt P47900)	True
CSc1nc(N)c2ncn(C3O[C@H](CO[P@](O)(=S)OP(=O)(O)OP(=O)(O)O)[C@@H](O)[C@H]3O)c2n1 (stereo partly specified)	P2Y purinoceptor 1 (Homo sapiens) (UniProt P47900)	True

Request: State whether 20 nM exceeds EC50 recorded for BP(=O)(OC[C@H]1O[C@@H](n2cnc3c(N)nc(SC)nc32)[C@H](O)[C@@H]1O)OP(=O)(O)OP(=O)(O)O (stereo partly specified) .
Response: False

Request: State whether 20 nM exceeds EC50 recorded for Nc1ncnc2c1ncn2C1O[C@H](CO[P@@](O)(=S)OP(=O)(O)OP(=O)(O)O)[C@@H](O)[C@H]1O (stereo partly specified) .
Response: False

Request: State whether 20 nM exceeds EC50 recorded for CSc1nc(N)c2ncn([C@@H]3O[C@H](COP(=O)(O)OP(=O)(O)OP(=O)(O)O)[C@@H](O)[C@H]3O)c2n1 .
Response: True
